Collected composite z-score values appear next to each entry.
- Tested on: XIP peptide (Xip251-270) binding
- Run description: small-molecule binders of XIP peptide, primary screen, biochemical, small-molecule microarray, fluorescence 635/667 nm, 0.1 µg/mL protein (AID 1182)
- Condition set: fluorescent protein binding, 635 nm, higher = more signal, called active from +8 up or from −8 down
Number, no unit, nothing else.

A selection of reference data follows.
* CC(=O)OC[C@H]1O[C@@H](ON=C(C)CCN2CCc3nc(-c4ccccc4)c(-c4ccccc4)cc3C2)[C@H](OC(C)=O)[C@@H](OC(C)=O)[C@@H]1OC(C)=O | 0.0113
* CCN1C(=O)[C@H]2[C@H]3[C@H](O)[C@H](O)CC(=NOCc4ccccc4)[C@H]3CC[C@H]2C1=O | -0.0513
* O[C@@H](Cc1ccccc1)[C@H]1C2C=CCCC(c3ccccc3)=C2CN1Cc1cccc(Cl)c1 (stereo not given in full) | -0.241
* CCOC(=O)[C@H](Cc1ccccc1)NC(=O)CCC1CC(OC(=O)NCc2ccc3c(c2)OCO3)CC2(CCCC(COC(=O)NCc3cccc(C(F)(F)F)c3)O2)O1 (stereo not given in full) | 0.19

(Q) Please tell me the measured composite z-score for NC(=O)NCC#Cc1ccc2c(c1)[C@]1(C(=O)N2)[C@H](c2ccc(O)cc2)N2[C@H](c3ccccc3)[C@H](c3ccccc3)OC(=O)[C@H]2[C@@H]1C(=O)N1CCCCCCC1 ; system: XIP peptide (Xip251-270) binding.
(A) 0.145

(Q) Give composite z-score only, for COC(=O)[C@H]1COC(c2ccc(OCCCO)cc2)=N1 , using XIP peptide (Xip251-270) binding data.
(A) 0.239

(Q) Provide composite z-score, recorded with XIP peptide (Xip251-270) binding, of CCc1cc2c(nc1CC)CCN(CCC(C)=NO[C@@H](C)c1cc(-c3c(C)cc(C)cc3C)no1)C2
(A) -0.712

(Q) Report its composite z-score with XIP peptide (Xip251-270) binding as the test system: CCc1cc2c(nc1CC)CCN(CCC(C)=NOC[C@@H](O)COCc1ccco1)C2
(A) 2.62

(Q) Given CN1C(=O)C2C=CC(C(O)c3ccc(I)cc3)N(NC(=O)OC(C)(C)C)C2C1=O (stereo not given) , report its composite z-score on XIP peptide (Xip251-270) binding.
(A) 0.0031

(Q) Using XIP peptide (Xip251-270) binding as the test system, report measured composite z-score of COC(=O)[C@@H]1CC[C@H](C)[C@@H](c2ccc(C)cc2)N1C(=O)c1ccc(C=NOC(C)CN2CCCCc3nc(C)c(C)cc32)cc1 (stereo not given in full) .
(A) -0.206

(Q) # return composite z-score of C[C@@H](c1ccccc1)N1C(=O)[C@H]2[C@H]3[C@H](O)[C@H](O)CC(=NOC[C@@H](O)COCc4ccco4)[C@@H]3CC[C@H]2C1=O (system: XIP peptide (Xip251-270) binding)
(A) -0.201

(Q) Provide the reported composite z-score (system: XIP peptide (Xip251-270) binding) for O=C(NN=C1C[C@@H](O)[C@@H](O)[C@@H]2[C@@H]3C(=O)N(c4cccc(Oc5ccccc5)c4)C(=O)[C@@H]3CC[C@@H]12)OCc1ccccc1
(A) -0.0987

(Q) Please report composite z-score with XIP peptide (Xip251-270) binding for item C=CC[C@@H]1C=C[C@H](ON=C2c3cc(OC)ccc3O[C@H](c3cccc(OC)c3)[C@H]2O)[C@@H](CO)O1 .
(A) 0.0897

(Q) State, for XIP peptide (Xip251-270) binding, measured composite z-score of the compound listed here: COC(=O)[C@@H]1CC[C@H](C)[C@@H](c2ccc(C)cc2)N1C(=O)c1ccc(C=NOC[C@@H](O)COCc2ccco2)cc1
(A) -0.484

(Q) Give reported composite z-score for CC(=O)OC[C@H]1O[C@@H](ON=C[C@@H](C)[C@H](OCc2ccccc2)C(C)C)[C@H](OC(C)=O)[C@@H](OC(C)=O)[C@@H]1OC(C)=O (XIP peptide (Xip251-270) binding)
(A) -0.182

Recorded values, source PubChem BioAssay.
